test system: DMPK2; construct: gene CDC42BPG; details: concentration: 1 μM, replicates: in singlicate; n = 1;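 also: KINOMEscan kinase panel screen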
Recorded %Inh for the following compounds
assay.endpoint: %Inh

compound | reported.measurement
COC(=O)c1c(-c2ccccc2)c2cc(C)ccc2c(=O)n1Cc1ccccc1 | 0%
Fc1cccc(CSc2nnc(-c3ccc4c(c3)CCO4)o2)c1 | 9%
Cc1ccccc1COc1cc(-n2cnc3cc(Cl)ccc32)sc1C(N)=O | 2%
O=C(Nc1ccc2c(c1)OCO2)NC1CCN(c2ccnc(NCc3ccc(F)cc3)n2)CC1 | 16%
CCC(=O)c1c(-c2ccccc2)c2cc(Cl)ccc2c(=O)n1Cc1cc(C(=O)NC2CC2)n(C)n1 | 0%
COc1cc2ncn(-c3cc(OCc4ccncc4)c(C(N)=O)s3)c2cc1OC | 12%
Cl.NS(=O)(=O)c1cccc(Nc2cc(-c3ccc(F)cc3)n[nH]2)c1 | 0%
COc1cc(Nc2nccc(N3CCC(NC(=O)C(C)c4ccc(Cl)cc4)C3)n2)cc(OC)c1OC (stereo not drawn) | 8%
C[C@@H]1CC[C@H](C(=O)NC2CCCCC2)CN1c1cc(-c2ccc3c(N)n[nH]c3c2)nc(N)n1 | 23%
COc1cc(Nc2ccnc3ccc(C(F)(F)F)cc23)cc(OC)c1OC | 4%
O=C(NCc1cccs1)c1cc(C(=O)c2c(Cl)cccc2Cl)c[nH]1 | 4%
Nc1nc(N)c2nc(-c3ccccc3)[nH]c2n1 | 0%
O=C(Nc1n[nH]c2cc(-c3ccccc3F)ccc12)C1CC1 | 0%
CCC(=O)c1c(-c2ccccc2)c2cc(Cl)ccc2c(=O)n1Cc1cc(S(C)(=O)=O)n(CCC(C)(C)O)n1 | 17%
FC(F)(F)c1ccc(-c2ncn(CCCN3CCOCC3)c2-c2ccncc2)cc1 | 1%
COc1cc(OC)cc(-c2cc3cnc(N)nc3nc2NC(=O)NC(C)(C)C)c1 | 0%
O=C(Nc1n[nH]c2nc(-c3ccccc3)c(Br)cc12)C1CC1 | 0%
CCCNC(=O)Nc1ccc(Oc2ncnc3ccn(C)c23)cc1 | 0%
CCc1ccc(-c2ccc3c(c2)-c2nn(C)cc2S(=O)(=O)N3C)cc1 | 0%
Cc1nc(N(C)[C@H]2CN(C(=O)CC#N)CC[C@H]2C)c2cc[nH]c2n1 | 5%
Cc1c(Cn2c(C)nn3c(=O)cc(N4CCO[C@H](C)C4)nc23)cccc1C(F)(F)F | 5%
CCn1c(-c2nonc2N)nc2ccccc21 | 0%
OCCCNc1nccc(-c2c(-c3cccc(C(F)(F)F)c3)nn3cc(C(F)(F)F)ccc23)n1 | 39%
COc1cc2nccc(Nc3ccc(OCc4ccc(NC(C)=O)cc4)cc3)c2cc1OC.Cl | 0%
CCCC(=O)Nc1n[nH]c2ncc(-c3cccc4ccccc34)cc12 | 4%
COC(=O)c1c(-c2ccccc2)c2cc(Br)ccc2c(=O)n1Cc1ccc(S(C)(=O)=O)cc1 | 5%
Nc1nc(-c2ccccc2F)c(-c2ccnc3ccccc23)s1 | 3%
CN1C(=O)C(Nc2ccccc2)=C(c2ccccc2)C1=O | 0%
Cc1nn2c(=O)cc(N3CCOCC3)nc2n1Cc1cccc(Cl)c1Cl | 0%
COc1ccc(CNC(=O)NC2CCN(c3ccnc(Nc4ccc(F)cc4)n3)C2)cc1 (stereo not drawn) | 16%
COc1cc2ncn(-c3cc(OCc4ccncc4Br)c(C(N)=O)s3)c2cc1OC | 0%
COC(=O)c1c(-c2ccccc2)c2cc(Br)ccc2c(=O)n1Cc1ccc(NC(=O)CCC(=O)O)cc1 | 0%
CC(C)(C)c1ccc(C(=O)Nc2cn3cc(-c4ccccc4)ccc3n2)cc1 | 0%
CCC(=O)c1c(-c2ccccc2)c2cc(Cl)ccc2c(=O)n1Cc1cc(S(C)(=O)=O)n(CC(F)F)n1 | 0%
O=C(Nc1n[nH]c2nc(-c3ccccc3)c(Cl)cc12)C1CC1 | 11%
Cc1cccc(-c2nc(Nc3ccc4c(cnn4C)c3)c3ccccc3n2)n1 | 22%

###

test system: MRCKA; details: concentration: 1 μM, replicates: in singlicate; n = 1
Recorded %Inh for the following compounds

compound | unit.of.measurement | %Inh
COc1cc2ncn(-c3cc(OCCCc4ccccc4)c(C(N)=O)s3)c2cc1OC [GSK205189] | % | 0
COc1ccc(-c2coc3ccc(-c4nnc(SCc5cccc(C#N)c5)o4)cc23)cc1 | % | 0
CCc1ccc(-c2ccc3c(c2)-c2nn(C)cc2S(=O)(=O)N3C)cc1 | % | 0
Nc1n[nH]c2ncc(-c3ccccc3)cc12 [SB-517081] | % | 3
Cn1c(=O)c(F)c(Nc2ccc(I)cc2F)c2c(=O)n(OC[C@H](O)CO)cnc21 | % | 20
COc1cc(Nc2ccnc3ccc(C(F)(F)F)cc23)cc(OC)c1OC [GW577382] | % | 22
COc1cc(OC)cc(-c2cc3cnc(N)nc3nc2NC(=O)NC(C)(C)C)c1 | % | 0
COc1ccc(-n2cnc3c(N)ncnc32)cc1 [SKF-97236] | % | 0
COc1cc2nccc(Nc3ccc(OCc4ccc(NC(C)=O)cc4)cc3)c2cc1OC.Cl [GW440135] | % | 9
CCS(=O)c1ccc(-c2coc3ccc(-c4nnc(C)o4)cc23)cc1 (stereo not shown) | % | 0
Cc1ccccc1COc1cc(-n2cnc3cc(Cl)ccc32)sc1C(N)=O [GW813349] | % | 29
Nc1nccc2scc(-c3ccc4c(c3)CCN4C(=O)Cc3ccccc3)c12 [GSK2576924] | % | 11
COC(=O)c1c(-c2ccccc2)c2cc(Br)ccc2c(=O)n1Cc1ccc(S(C)(=O)=O)cc1 | % | 0
C[C@@H]1CC[C@H](C(=O)NC2CCCCC2)CN1c1cc(-c2ccc3c(N)n[nH]c3c2)nc(N)n1 [GSK2291363] | % | 15
Cc1ccc(-c2ccc3c(ccc4sc5c(c43)NC[C@@H](C)N=C5N(C)C)n2)cn1 | % | 0
Nc1ncnc2c1ncn2-c1ccc(Cl)cc1 [AH2635] | % | 0
CC(C)(C)c1ccc(C(=O)Nc2cn3cc(-c4ccccc4)ccc3n2)cc1 | % | 0
CN1C(=O)C(Nc2cc(Cl)c(O)c(Cl)c2)=C(c2ccc(Cl)cc2)C1=O [SB-404321] | % | 5
O=c1cc(N2CCOCC2)nc2n(Cc3ccc(F)c(Cl)c3)ccn12 [GSK2297099] | % | 0

###

tested on: PLK4; settings: concentration: 1 μM, replicates: in singlicate; n = 1
Recorded %Inh for the following compounds
assay.endpoint: %Inh (%)

compound | assay.endpoint | reported.measurement
CN1C(=O)C(Nc2ccccc2)=C(c2ccccc2)C1=O | %Inh | 0
COc1ccc(CNC(=O)NC2CCN(c3ccnc(Nc4ccc(F)cc4)n3)C2)cc1 (stereo not drawn) | %Inh | 19
COc1cc2ncn(-c3cc(OCCCc4ccccc4)c(C(N)=O)s3)c2cc1OC | %Inh | 0
Cc1cc(Nc2nc(-c3cccc(C)n3)nc3ccccc23)ccn1 | %Inh | 0
Cn1c(=O)c(F)c(Nc2ccc(I)cc2F)c2c(=O)n(OC[C@H](O)CO)cnc21 | %Inh | 4
Nc1nc(N)c2nc(-c3ccccc3)[nH]c2n1 | %Inh | 0
CCC(=O)c1c(-c2ccccc2)c2cc(Cl)ccc2c(=O)n1Cc1cc(S(C)(=O)=O)n(CCC(C)(C)O)n1 | %Inh | 24
COC(=O)c1c(-c2ccccc2)c2cc(Br)ccc2c(=O)n1Cc1ccc(S(C)(=O)=O)cc1 | %Inh | 32
COc1ccc(-c2coc3ccc(-c4nnc(SCc5cccc(C#N)c5)o4)cc23)cc1 | %Inh | 18
C[C@@H]1CC[C@H](C(=O)NC2CCCCC2)CN1c1cc(-c2ccc3c(N)n[nH]c3c2)nc(N)n1 | %Inh | 0
COc1cc(OC)cc(-c2cc3cnc(N)nc3nc2NC(=O)NC(C)(C)C)c1 | %Inh | 0
CN(C)c1cc(-c2ccc3c(N)n[nH]c3c2)nc(N)n1 | %Inh | 0
COc1cc2nccc(Nc3cccc(Oc4ccccc4)c3)c2cc1OC.Cl | %Inh | 0
COc1ccc(Nc2nccc(N3CCC(NS(=O)(=O)c4ccc(NC(C)=O)cc4)C3)n2)cc1 (stereo not drawn) | %Inh | 8
COc1cc(Nc2nccc(N3CCC(NC(=O)C4COc5ccccc5O4)C3)n2)cc(OC)c1OC (stereo not drawn) | %Inh | 9
CN1C(=O)C(Nc2cc(Cl)c(O)c(Cl)c2)=C(c2ccc(Cl)cc2)C1=O | %Inh | 0
CCn1c(-c2nonc2N)nc2ccccc21 | %Inh | 30
CCCC(=O)Nc1n[nH]c2ncc(-c3cccc4ccccc34)cc12 | %Inh | 13

###

tested on: JAK1(JH1domain-catalytic); conditions: concentration: 1 μM, replicates: in singlicate; n = 1
Please note: %Inh exactly at 4% is f. Only values below 4% get t.

compound | classification
O=C(Nc1ccc2c(c1)OCO2)NC1CCN(c2ccnc(NCc3ccc(F)cc3)n2)CC1 [GSK1379859] | f
COC(=O)c1c(-c2ccccc2)c2cc(C)ccc2c(=O)n1Cc1ccccc1 | t
COc1ccc(-n2cnc3c(N)ncnc32)cc1 [SKF-97236] | f
CCc1nc(-c2cccc(C)c2)c(-c2ccncc2)s1 | t
COc1cccc(C2=C(Nc3cccc(C(=O)O)c3)C(=O)NC2=O)c1 [SB-390770] | t
COc1cc(OC)cc(-c2cc3cnc(N)nc3nc2NC(=O)NC(C)(C)C)c1 | t
COC(=O)c1c(-c2ccccc2)c2cc(Br)ccc2c(=O)n1Cc1ccc(NC(=O)CCC(=O)O)cc1 | f
Nc1ncnc2c1ncn2-c1cccc(F)c1 [SKF-97560] | f

FYI, the data here is from paper PMC5540273.
